Recorded pKd of Antibody for ARM Compound of Formula (I) values for a group of compounds are listed next.
Biological target: Anti-cotinine antibody (SEQ ID NO: 11 / SEQ ID NO: 12, rabbit variable region with human IgG1 Fc domain)
Experiment: Binding of anti-cotinine antibody to ARM compounds by SPR, Biacore T200, 37° C. (Example 202)
Conditions: pH 7.4, rabbit variable region/human IgG1 Fc antibody captured on protein A
Text: Anti-cotinine antibodies having a heavy chain sequence of SEQ ID NO: 11 and a light chain sequence of SEQ ID NO: 12 (rabbit variable region with human IgG1 Fc domain containing a DE mutation (S239D/1332E)) were captured on one or more flow cells of a protein A sensor chip (Cytiva) using a Biacore T200 while reserving flow cell 1 as a reference. […] The experiment was run using Biacore T200 control software and evaluated using Biacore T200 Evaluation software. […]
I only need the number, thanks.

Below, each entry is followed by its recorded pKd of Antibody for ARM Compound of Formula (I) result.
{"compound": "CC(C)N(C)[C@@H]1CC[C@H](N2CC[C@H](Nc3ncnc4ccc(C(F)(F)F)cc34)C2=O)[C@H](NC(=O)[C@H]2C[C@@H](NC(=O)CCOCCOCCNC(=O)CCNC(=O)[C@H]3CC(=O)N(C)[C@@H]3c3cccnc3)C2)C1 [Example 49]", "result": 9.191}
{"compound": "CC(C)N(C)[C@@H]1CC[C@H](N2CC[C@H](Nc3ncnc4ccc(C(F)(F)F)cc34)C2=O)[C@H](NC(=O)[C@H]2CC[C@H](NC(=O)CCO[C@H]3CC[C@H](OCCNC(=O)[C@H]4CC(=O)N(C)[C@@H]4c4cccnc4)CC3)CC2)C1 [Example 113]", "result": 9.767}
{"compound": "CC(C)N(C)[C@@H]1CC[C@H](N2CC[C@H](Nc3ncnc4ccc(C(F)(F)F)cc34)C2=O)[C@H](NC(=O)CCCN2CCC3(CCN(CCCNC(=O)[C@H]4CC(=O)N(C)[C@@H]4c4cccnc4)CC3)CC2)C1 [Example 191]", "result": 9.68}
{"compound": "CC(C)N(C)[C@@H]1CC[C@H](N2CC[C@H](Nc3ncnc4ccc(C(F)(F)F)cc34)C2=O)[C@H](NC(=O)COCCNC(=O)CCOCCOCCNC(=O)CCNC(=O)[C@H]2CC(=O)N(C)[C@@H]2c2cccnc2)C1 [Example 50]", "result": 9.1485}

Now look at this one.
State, in one line, measured pKd of Antibody for ARM Compound of Formula (I) of CC(C)N(C)[C@@H]1CC[C@H](N2CC[C@H](Nc3ncnc4ccc(C(F)(F)F)cc34)C2=O)[C@H](NC(=O)CCCNc2c(NCCOCCOCCOCCOCCNC(=O)[C@H]3CC(=O)N(C)[C@@H]3c3cccnc3)c(=O)c2=O)C1 [Example 164] 9.3225
